- Tested on: SN12C renal
- Assay details: NCI-60 one-dose screen, 48 h (100 = growth as untreated, 0 = no growth, -100 = all killed)
- Condition notes: 10 µM unless noted
Compounds without any hit were thinned out: in the full panel of roughly 83,000, 20% have a hit.
Measured property: growth (%)
// units = %; emit number, no label

Data request: GET growth where system = SN12C renal and item = `Cc1nc2c(nnn2-c2ccccc2)c2nc(-c3ccccc3)oc(=O)c12`
Data returned: 103

Data request: GET growth where system = SN12C renal and item = `COc1cc(C(=O)Nc2ccc(N(C)C)cc2)cc(OC)c1OC`
Data returned: 94.2

Data request: GET growth where system = SN12C renal and item = `COc1nc(OC)nc(-c2cc(-c3cc(OC)c(OC)c(OC)c3)no2)n1`
Data returned: 94.6

Data request: GET growth where system = SN12C renal and item = `COc1ccc(Cn2cc3c(c2-c2ccccc2)CCc2cnoc2-3)cc1N`
Data returned: 36.2

Data request: GET growth where system = SN12C renal and item = `Cc1nc2c(nnn2-c2ccccc2)c2nc(-c3ccc(Cl)cc3)oc(=O)c12`
Data returned: 104

###

- System: RPMI-8226 leukemia
- Assay details: NCI-60 one-dose screen, 48 h
- Condition notes: 10 µM unless noted
Compounds without any hit were thinned out: in the full panel of roughly 83,000, 20% have a hit. The source made the active and inactive calls. The calls were made as follows: active = growth percent below 10; inactive = the rest.
Result category, one only: active, inactive

Data request: Record request — test call for `O=C(/C=C/c1c[nH]c2ccccc12)c1cc2ccccc2o1`
Data returned: inactive

Data request: Record request — test call for `CNc1nc2ncn(C)c2c(=O)[nH]1`
Data returned: inactive

Data request: Record request — test call for CC1(c2ccc(Br)cc2)NC(=O)NC1=O (stereo unspecified)
Data returned: inactive

Data request: Record request — test call for `N=c1c2c(=O)n3c(nc2nc2sc4ccc(Cl)cc4n12)-c1ccccc1Sc1ccccc1-3`
Data returned: active

Data request: Record request — test call for CC(O)CCC(C)[N+](=O)[O-] (stereo unspecified)
Data returned: inactive

Data request: Record request — test call for `COc1ccc(-c2nnc(SCC(=O)Nc3ccc(C(=O)/C=C/c4cc(OC)c(OC)c(OC)c4)cc3)n2-c2ccccc2)cc1OC`
Data returned: inactive

Data request: Record request — test call for `COc1cc(OC)c(/C=C/c2ccc3ccccc3[n+]2C)c(OC)c1`
Data returned: active

Data request: Record request — test call for `COC(=O)[C@H](Cc1cn(C)cn1)NC(=O)[C@@H](NC(=O)Nc1cc(C(F)(F)F)cc(C(F)(F)F)c1)C(C)(C)C`
Data returned: active

Data request: Record request — test call for `Nc1cc(N)c2nc(-c3ccccc3)c(NCCc3ccc(Cl)c(Cl)c3)nc2c1`
Data returned: active

Data request: Record request — test call for `CC(=O)Nc1nc(C)c(C(=O)NN)s1`
Data returned: inactive

Data request: Record request — test call for `O=C(CN1C(=O)NC(c2ccccc2)(c2ccccc2)C1=O)c1ccc(N2CCCC2)cc1`
Data returned: inactive

###

- Tested on: MDA-MB-231 breast
- Assay details: NCI-60 one-dose screen, 48 h
- Condition notes: 10 µM unless noted
This is part of a sample that, as a whole, favours compounds with a hit. Of some 83,000 tested, about 20% had one in any assay. The source made the active and inactive calls. How the source made its calls: active means growth percent below 10; inactive means the rest.
Result category, one only: YES (active), NO (inactive)

Data request: Record request — test call for `CCn1cnc(C[C@H](NC(=O)[C@@H](NC(=O)Nc2cc(C(F)(F)F)cc(C(F)(F)F)c2)C(C)(C)C)C(=O)OC)c1`
Data returned: YES

Data request: Record request — test call for `Cc1cc2cn3c4ccc(O)cc4[nH]c(=O)c3c2cc1C`
Data returned: YES

Data request: Record request — test call for `COc1nc(OC)nc(-c2cc(C(=O)c3ccc(Br)cc3)n3cc(C)cc(C)c23)n1`
Data returned: NO

Data request: Record request — test call for `O=C1c2cc([N+](=O)[O-])ccc2-c2cc(Cl)c(NC(=O)C(F)(F)F)cc21`
Data returned: NO

Data request: Record request — test call for `CCOC(=O)CSSCC(=O)OCC`
Data returned: NO

Data request: Record request — test call for `Ic1ccc(SSc2ccc(I)cc2)cc1`
Data returned: NO

Data request: Record request — test call for `CSC1=Nc2c(c(C)c(-c3ccccc3)n2CCCCl)C2=NC(=O)CN12`
Data returned: NO

Data request: Record request — test call for `CC(C)OC(=O)c1ccc2n1CCCc1cnc(Nc3ccccc3)nc1-2`
Data returned: NO

Data request: Record request — test call for `COc1cc(OC)c(/C=C/c2ccc3ccccc3[n+]2C)c(OC)c1`
Data returned: NO

Data request: Record request — test call for `Clc1ccc(I)c2ccccc12`
Data returned: NO

Data request: Record request — test call for `COc1ccc2sc(-n3nc4nc5n(c(=O)c4c3N)-c3ccccc3Sc3ccccc3-5)nc2c1`
Data returned: NO

Data request: Record request — test call for `CC(=O)c1ccc2c(c1)c1ccccc1n2C`
Data returned: NO

Data request: Record request — test call for `Cc1c(Cc2ccccc2)c(=O)oc2c(C)c(OCc3n[nH]c(=S)o3)ccc12`
Data returned: NO

Data request: Record request — test call for `CCCC(=O)NNc1[nH]c(-c2ccc(OC)cc2)cc1C(=O)OCC`
Data returned: NO

Data request: Record request — test call for `Brc1c(-c2ccncc2)nc2n1CCS2`
Data returned: NO

Data request: Record request — test call for `O=C1C=C(OCC=C(C(F)(F)F)C(F)(F)F)c2ccccc2C1=O`
Data returned: YES

Data request: Record request — test call for `CCCC(CCC)Oc1ccc(CCCC2=C(O)c3ccccc3C(=O)C2=O)cc1`
Data returned: NO

Data request: Record request — test call for Cc1ccc(S(=O)(=O)NC(CCC(=O)Nc2ccccc2)C(=O)Nc2ccccc2)cc1 (configuration not stated)
Data returned: YES

Data request: Record request — test call for `O=C(N/N=C/c1coc2ccccc2c1=O)c1cc2oc(-c3ccccc3)cc2[nH]1`
Data returned: NO

Data request: Record request — test call for `CC[C@H](Nc1ncnc2nc[nH]c12)c1nc2cccc(NCc3ccc(C(=O)NO)nc3)c2c(=O)n1-c1ccccc1`
Data returned: NO

Data request: Record request — test call for `CCCC(=O)NNc1[nH]c(-c2cc(OC)c(OC)c(OC)c2)cc1C(=O)OCC`
Data returned: NO

Data request: Record request — test call for `CC(=O)Nc1nc(C)c(C(=O)NN)s1`
Data returned: NO
